study system: Recombinant human TRKB (Homo sapiens (Human))
Sequence (Q16620 32-822): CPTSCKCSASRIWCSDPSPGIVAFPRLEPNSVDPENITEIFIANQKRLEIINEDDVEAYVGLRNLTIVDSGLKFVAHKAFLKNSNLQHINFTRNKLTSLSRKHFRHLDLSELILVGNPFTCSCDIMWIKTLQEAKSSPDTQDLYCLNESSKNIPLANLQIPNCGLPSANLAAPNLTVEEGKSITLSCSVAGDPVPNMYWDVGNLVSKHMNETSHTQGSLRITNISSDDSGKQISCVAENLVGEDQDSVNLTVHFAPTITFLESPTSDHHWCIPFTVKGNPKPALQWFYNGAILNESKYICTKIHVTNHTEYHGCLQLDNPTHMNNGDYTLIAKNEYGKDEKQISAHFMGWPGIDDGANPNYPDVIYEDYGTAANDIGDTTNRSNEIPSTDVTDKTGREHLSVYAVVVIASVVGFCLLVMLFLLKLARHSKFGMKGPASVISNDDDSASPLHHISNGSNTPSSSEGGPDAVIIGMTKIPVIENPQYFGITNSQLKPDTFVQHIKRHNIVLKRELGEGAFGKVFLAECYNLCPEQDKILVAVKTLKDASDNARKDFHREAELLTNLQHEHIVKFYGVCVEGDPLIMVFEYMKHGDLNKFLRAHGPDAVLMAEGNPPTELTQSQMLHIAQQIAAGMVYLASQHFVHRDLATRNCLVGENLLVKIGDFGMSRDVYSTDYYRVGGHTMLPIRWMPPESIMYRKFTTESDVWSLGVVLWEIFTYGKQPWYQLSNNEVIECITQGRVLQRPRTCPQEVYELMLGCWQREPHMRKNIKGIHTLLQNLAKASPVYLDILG
test description: In vitro activity test on TRKB kinase (HTRF kinEASE TK)
Format: biochemical
assay context: 4.77 μM ATP, 50 min, room temperature
Recorded IC50 by entry

compound: Fc1ccc(F)c([C@H]2C[C@H](F)CN2c2n[nH]c3ncc(-c4cnn(CC(F)F)c4)cc23)c1
IC50: < 1 nM

compound: CC(C)(O)Cn1cc(-c2cnc3[nH]nc(N4C[C@@H](F)C[C@@H]4c4cc(F)ccc4F)c3c2)cn1
IC50: < 1 nM

compound: Fc1ccc(F)c([C@H]2C[C@H](F)CN2c2n[nH]c3ncc(-c4cnn([C@H]5CCNC5)c4)cc23)c1
IC50: < 1 nM

Now turn to the next compound.
IC50 for O=C1CC(n2cc(-c3cnc4[nH]nc(N5C[C@@H](F)C[C@@H]5c5cc(F)ccc5F)c4c3)cn2)CCN1 (stereo partly shown) is < 10 nM

* * *

Recorded IC50 by entry
study system: Recombinant human TRKC (Homo sapiens (Human), UniProt Q16288)
Sequence (Q16288 32-839): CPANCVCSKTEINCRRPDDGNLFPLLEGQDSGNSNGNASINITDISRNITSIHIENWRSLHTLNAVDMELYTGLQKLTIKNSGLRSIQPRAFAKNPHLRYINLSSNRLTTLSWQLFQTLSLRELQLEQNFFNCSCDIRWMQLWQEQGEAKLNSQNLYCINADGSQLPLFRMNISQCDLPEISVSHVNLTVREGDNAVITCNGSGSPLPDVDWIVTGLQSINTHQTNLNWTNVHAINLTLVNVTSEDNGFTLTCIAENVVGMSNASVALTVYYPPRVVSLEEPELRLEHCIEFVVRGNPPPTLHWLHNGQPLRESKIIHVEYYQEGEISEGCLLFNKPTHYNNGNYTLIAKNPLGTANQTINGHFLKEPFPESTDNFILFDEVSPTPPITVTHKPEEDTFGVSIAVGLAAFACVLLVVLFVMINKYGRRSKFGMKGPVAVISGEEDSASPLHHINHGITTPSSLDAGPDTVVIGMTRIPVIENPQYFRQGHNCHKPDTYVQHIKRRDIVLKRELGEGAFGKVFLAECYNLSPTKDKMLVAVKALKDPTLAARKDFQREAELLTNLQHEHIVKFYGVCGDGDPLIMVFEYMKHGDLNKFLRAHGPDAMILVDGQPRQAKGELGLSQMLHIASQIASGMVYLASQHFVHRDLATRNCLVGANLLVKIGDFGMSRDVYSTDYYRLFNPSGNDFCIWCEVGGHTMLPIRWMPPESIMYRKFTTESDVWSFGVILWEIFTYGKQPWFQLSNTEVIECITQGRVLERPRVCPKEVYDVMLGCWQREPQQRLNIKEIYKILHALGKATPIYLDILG
test description: In vitro activity test on TRKC kinase (HTRF kinEASE TK)
Format: biochemical
assay context: 25.64 μM ATP, 40 min, room temperature

Answered cases to consult:
compound: Fc1ccc(F)c([C@H]2C[C@H](F)CN2c2n[nH]c3ncc(-c4cnn(CC(F)F)c4)cc23)c1
IC50: < 1 nM

compound: COCc1nnc(-c2cnc3c(c2)c(N2C[C@@H](F)C[C@@H]2c2cc(F)ccc2F)nn3COC)o1
IC50: < 100 nM

compound: O=C(NCCCO)c1cnc2[nH]nc(N3CCC[C@@H]3c3cc(F)ccc3F)c2c1
IC50: < 50 nM

compound: Fc1ccc(F)c([C@H]2C[C@H](F)CN2c2n[nH]c3ncc(-c4cnn(C5CCNCC5)c4)cc23)c1
IC50: < 1 nM

compound: O=C(N[C@H]1CC[C@@H](O)CC1)c1cnc2[nH]nc(N3CCC[C@@H]3c3cc(F)ccc3F)c2c1
IC50: < 10 nM

IC50 for CC(C)(O)CNC(=O)c1cnc2[nH]nc(N3CCC[C@@H]3c3cc(F)ccc3F)c2c1 is < 10 nM

IC50 for Cc1cn(CC(F)F)nc1-c1cnc2[nH]nc(N3C[C@@H](F)C[C@@H]3c3cc(F)ccc3F)c2c1 is < 1 nM

IC50 for NNC(=O)c1cnc2[nH]nc(N3C[C@@H](F)C[C@@H]3c3cc(F)ccc3F)c2c1 is < 1 nM

IC50 for COC(=O)c1cnc2[nH]nc(N3C[C@@H](F)C[C@@H]3c3cc(F)ccc3F)c2c1 is < 1 nM

IC50 for CN(C)CCn1cc(-c2cnc3[nH]nc(N4C[C@@H](F)C[C@@H]4c4cc(F)ccc4F)c3c2)cn1 is < 1 nM

IC50 for Fc1ccc(F)c([C@H]2C[C@H](F)CN2c2n[nH]c3ncc(-c4cnn(CC5CNC5)c4)cc23)c1 is < 1 nM

IC50 for COCCNC(=O)c1cnc2[nH]nc(N3CCC[C@@H]3c3cc(F)ccc3F)c2c1 is < 10 nM

IC50 for Fc1ccc(F)c([C@H]2C[C@H](F)CN2c2n[nH]c3ncc(-c4cn[nH]c4)cc23)c1 is < 1 nM

IC50 for Fc1ccc(F)c([C@H]2C[C@H](F)CN2c2n[nH]c3ncc(-c4cnn([C@@H]5CCNC5)c4)cc23)c1 is < 100 nM

IC50 for CS(=O)(=O)n1cc(-c2cnc3[nH]nc(N4C[C@@H](F)C[C@@H]4c4cc(F)ccc4F)c3c2)cn1 is < 1 nM

IC50 for O=C(NCCCCO)c1cnc2[nH]nc(N3CCC[C@@H]3c3cc(F)ccc3F)c2c1 is < 10 nM

IC50 for O=C(O)c1cnc2[nH]nc(N3C[C@@H](F)C[C@@H]3c3cc(F)ccc3F)c2c1 is < 1 nM

IC50 for CC(C)OC(=O)c1cnc2[nH]nc(N3C[C@@H](F)C[C@@H]3c3cc(F)ccc3F)c2c1 is < 1 nM

IC50 for O=C(Nc1cnc2[nH]nc(N3CCC[C@@H]3c3cc(F)ccc3F)c2c1)c1ccc(N2CC[C@H](O)C2)nc1 is < 50 nM

IC50 for CC(C)(O)Cn1cc(-c2cnc3[nH]nc(N4C[C@@H](F)C[C@@H]4c4cc(F)ccc4F)c3c2)cn1 is < 1 nM

IC50 for CNC(=O)CC1(O)CCN(C(=O)Nc2cnc3[nH]nc(N4CCC[C@@H]4c4cc(F)ccc4F)c3c2)C1 (stereo partly drawn) is < 500 nM

Measured values drawn from patent US12391687B2 for this set.
